Hey, just so you know, these numbers are from patent US20120101098A1.

Test system: mock-infected MT-4 cell
Assay: Cytotoxicity in mock-infected MT-4 cells
Type: cell-based
Overview of recorded CC50 for various molecules
MEASURED METRIC: CC50

| MOLECULE | REPORTED |
| --- | --- |
| C=C(C)[C@@H]1CC[C@]2(C(=O)N3CCC(CCCC(=O)NC)CC3)CC[C@]3(C)[C@H](CC[C@@H]4[C@@]5(C)CC[C@H](OC(=O)CC(C)(C)C(=O)O)C(C)(C)[C@@H]5CC[C@]43C)[C@@H]12 [Compound 45] | > 10 µM |
| C=C(C)[C@@H]1CC[C@]2(C(=O)NCCCCCCCNC(C)=O)CC[C@]3(C)[C@H](CC[C@@H]4[C@@]5(C)CC[C@H](O)C(C)(C)[C@@H]5CC[C@]43C)[C@@H]12 [Compound 4, A43-D, reference compound] | > 10 µM |

###

Test system: mock-infected MT-2 cell
Assay: Cytotoxicity in mock-infected MT-2 cells (XTT)
Conditions: concentration that inhibits mock-infected MT-2 cell growth by 50%
The entries below are paired with their reported CC50.

| COMPOUND | ASSAY SYSTEM | SCALE UNIT | CC50 |
| --- | --- | --- | --- |
| C=C(COCCc1ccccc1)[C@@H]1CC[C@]2(C(=O)N[C@@H](CC(C)C)C(=O)O)CC[C@]3(C)[C@H](CC[C@@H]4[C@@]5(C)CC[C@H](O)C(C)(C)[C@@H]5CC[C@]43C)[C@@H]12 | mock-infected MT-2 cell | µM | 21.7 |
| C=C(C)[C@@H]1CC[C@]2(C(=O)N3CCC(CCCC(=O)NCCN4CCOCC4)CC3)CC[C@]3(C)[C@H](CC[C@@H]4[C@@]5(C)CC[C@H](OC(=O)CC(C)(C)C(=O)O)C(C)(C)[C@@H]5CC[C@]43C)[C@@H]12 | mock-infected MT-2 cell | µM | 17.3 |
| C=C(CBr)[C@@H]1CC[C@]2(C(=O)N[C@@H](CC(C)C)C(=O)O)CC[C@]3(C)[C@H](CC[C@@H]4[C@@]5(C)CC[C@H](O)C(C)(C)[C@@H]5CC[C@]43C)[C@@H]12 | mock-infected MT-2 cell | µM | 26.8 |
| C=C(C)[C@@H]1CC[C@]2(C(=O)N3CCC(CCCC(=O)NCCCN4CCOCC4)CC3)CC[C@]3(C)[C@H](CC[C@@H]4[C@@]5(C)CC[C@H](OC(=O)CC(C)(C)C(=O)O)C(C)(C)[C@@H]5CC[C@]43C)[C@@H]12 | mock-infected MT-2 cell | µM | 18.5 |
| C=C(COCCN1CCOCC1)[C@@H]1CC[C@]2(C(=O)NCCCCCCCC(=O)NC)CC[C@]3(C)[C@H](CC[C@@H]4[C@@]5(C)CC[C@H](O)C(C)(C)[C@@H]5CC[C@]43C)[C@@H]12 | mock-infected MT-2 cell | µM | 22.3 |
| C=C(CO)[C@@H]1CC[C@]2(C(=O)N[C@@H](CC(C)C)C(=O)O)CC[C@]3(C)[C@H](CC[C@@H]4[C@@]5(C)CC[C@H](O)C(C)(C)[C@@H]5CC[C@]43C)[C@@H]12 | mock-infected MT-2 cell | µM | 30.7 |
| C=C(C)[C@@H]1CC[C@]2(C(=O)N[C@@H](CC(C)C)C(=O)O)CC[C@]3(C)[C@H](CC[C@@H]4[C@@]5(C)CC[C@H](NC(=O)CC(C)(C)C(=O)O)C(C)(C)[C@@H]5CC[C@]43C)[C@@H]12 | mock-infected MT-2 cell | µM | 35.9 |
| C=C(COCCC)[C@@H]1CC[C@]2(C(=O)N[C@@H](CC(C)C)C(=O)O)CC[C@]3(C)[C@H](CC[C@@H]4[C@@]5(C)CC[C@H](O)C(C)(C)[C@@H]5CC[C@]43C)[C@@H]12 | mock-infected MT-2 cell | µM | 25.3 |
| C=C(CN1CCOCC1)C1CCC2(C(=O)NC(CC(C)C)C(=O)O)CCC3(C)C(CCC4C5(C)CCC(O)C(C)(C)C5CCC43C)C12 (stereo not drawn) | mock-infected MT-2 cell | µM | 27.5 |
| C=C(C)[C@@H]1CC[C@]2(C(=O)N3CCC(CCCC(=O)O)CC3)CC[C@]3(C)[C@H](CC[C@@H]4[C@@]5(C)CC[C@H](OC(=O)CC(C)(C)C(=O)O)C(C)(C)[C@@H]5CC[C@]43C)[C@@H]12 | mock-infected MT-2 cell | µM | 20.8 |
| C=C(COCC)[C@@H]1CC[C@]2(C(=O)N[C@@H](CC(C)C)C(=O)O)CC[C@]3(C)[C@H](CC[C@@H]4[C@@]5(C)CC[C@H](O)C(C)(C)[C@@H]5CC[C@]43C)[C@@H]12 | mock-infected MT-2 cell | µM | 40.7 |
| C=C(COCCCC)[C@@H]1CC[C@]2(C(=O)N[C@@H](CC(C)C)C(=O)O)CC[C@]3(C)[C@H](CC[C@@H]4[C@@]5(C)CC[C@H](O)C(C)(C)[C@@H]5CC[C@]43C)[C@@H]12 | mock-infected MT-2 cell | µM | 24.9 |

###

Reported values of CC50 for individual entries
Assay: Example 2 bioassay cytotoxicity (CC50)
Conditions: Example 2 compounds (Scheme B)
MEASURED METRIC: CC50 (µM)

| CPD SMILES | SCALE UNIT | REPORTED |
| --- | --- | --- |
| C=C(COCCN1CCOCC1)[C@@H]1CC[C@]2(C(=O)NCCCCCCCC(=O)NC)CC[C@]3(C)[C@H](CC[C@@H]4[C@@]5(C)CC[C@H](O)C(C)(C)[C@@H]5CC[C@]43C)[C@@H]12 | µM | 12 |
| C=C(COCCN1CCOCC1)[C@@H]1CC[C@]2(C(=O)NCCCCCCCC(=O)O)CC[C@]3(C)[C@H](CC[C@@H]4[C@@]5(C)CC[C@H](O)C(C)(C)[C@@H]5CC[C@]43C)[C@@H]12 | µM | 12.4 |

###

Tested on: mock-infected MT-2 cell
Assay: Cytotoxicity in mock-infected MT-2 cells (XTT)
Settings: concentration that inhibits mock-infected MT-2 cell growth by 50%
Just a reminder that ties go to 0.0: only CC50 strictly below 30 µM counts as 1.0.

| MOLECULE | CLASS LABEL |
| --- | --- |
| C=C(COCCN1CCOCC1)[C@@H]1CC[C@]2(C(=O)NCCCCCCCC(=O)O)CC[C@]3(C)[C@H](CC[C@@H]4[C@@]5(C)CC[C@H](O)C(C)(C)[C@@H]5CC[C@]43C)[C@@H]12 [Compound 20] | 1.0 |
| C=C(C)[C@@H]1CC[C@]2(C(=O)N3CCC(CCCC(=O)N4CCOCC4)CC3)CC[C@]3(C)[C@H](CC[C@@H]4[C@@]5(C)CC[C@H](OC(=O)CC(C)(C)C(=O)O)C(C)(C)[C@@H]5CC[C@]43C)[C@@H]12 [Compound 46] | 1.0 |
| C=C(C)[C@@H]1CC[C@]2(C(=O)N3CCC(CCCC(=O)NC)CC3)CC[C@]3(C)[C@H](CC[C@@H]4[C@@]5(C)CC[C@H](OC(=O)CC(C)(C)C(=O)O)C(C)(C)[C@@H]5CC[C@]43C)[C@@H]12 [Compound 45] | 0.0 |
| C=C(C)[C@@H]1CC[C@]2(C(=O)N3CCC(CCCC(=O)O)CC3)CC[C@]3(C)[C@H](CC[C@@H]4[C@@]5(C)CC[C@H](O)C(C)(C)[C@@H]5CC[C@]43C)[C@@H]12 [Compound 38] | 0.0 |
| C=C(C)[C@@H]1CC[C@]2(C(=O)N3CCC(CCCC(=O)O)CC3)CC[C@]3(C)[C@H](CC[C@@H]4[C@@]5(C)CC[C@H](OC(=O)CCC(C)(C)C(=O)O)C(C)(C)[C@@H]5CC[C@]43C)[C@@H]12 [Compound 40] | 0.0 |

###

CC50, mock-infected MT-2 cell: measured values

| COMPOUND | ASSAY SYSTEM | SCALE UNIT | CC50 |
| --- | --- | --- | --- |
| Cc1cn([C@H]2C[C@H](N=[N+]=[N-])[C@@H](CO)O2)c(=O)[nH]c1=O [AZT, reference compound] | mock-infected MT-2 cell | µM | 1870 |
| C=C(COCCc1ccc(Cl)cc1)[C@@H]1CC[C@]2(C(=O)N[C@@H](CC(C)C)C(=O)O)CC[C@]3(C)[C@H](CC[C@@H]4[C@@]5(C)CC[C@H](O)C(C)(C)[C@@H]5CC[C@]43C)[C@@H]12 [Compound 17] | mock-infected MT-2 cell | µM | 34.6 |
| C=C(COCCc1ccc(F)cc1)[C@@H]1CC[C@]2(C(=O)N[C@@H](CC(C)C)C(=O)O)CC[C@]3(C)[C@H](CC[C@@H]4[C@@]5(C)CC[C@H](O)C(C)(C)[C@@H]5CC[C@]43C)[C@H]12 [Compound 15] | mock-infected MT-2 cell | µM | 24.4 |
| C=C(COCCc1ccc(OC)cc1)[C@@H]1CC[C@]2(C(=O)N[C@@H](CC(C)C)C(=O)O)CC[C@]3(C)[C@H](CC[C@@H]4[C@@]5(C)CC[C@H](O)C(C)(C)[C@@H]5CC[C@]43C)[C@@H]12 [Compound 14] | mock-infected MT-2 cell | µM | 16.7 |
| C=C(COCCc1ccc(Br)cc1)[C@@H]1CC[C@]2(C(=O)N[C@@H](CC(C)C)C(=O)O)CC[C@]3(C)[C@H](CC[C@@H]4[C@@]5(C)CC[C@H](O)C(C)(C)[C@@H]5CC[C@]43C)[C@@H]12 [Compound 16] | mock-infected MT-2 cell | µM | 20.8 |
| C=C(CO)[C@@H]1CC[C@]2(C(=O)NCCCCCCCC(=O)O)CC[C@]3(C)[C@H](CC[C@@H]4[C@@]5(C)CC[C@H](O)C(C)(C)[C@@H]5CC[C@]43C)[C@@H]12 [Compound 29] | mock-infected MT-2 cell | µM | 40.7 |
| C=C(CBr)[C@@H]1CC[C@]2(C(=O)NCCCCCCCC(=O)O)CC[C@]3(C)[C@H](CC[C@@H]4[C@@]5(C)CC[C@H](O)C(C)(C)[C@@H]5CC[C@]43C)[C@@H]12 [Compound 25] | mock-infected MT-2 cell | µM | 36.9 |
| C=C(COCCN1CCOCC1)[C@@H]1CC[C@]2(C(=O)N[C@@H](CC(C)C)C(=O)O)CC[C@]3(C)[C@H](CC[C@@H]4[C@@]5(C)CC[C@H](O)C(C)(C)[C@@H]5CC[C@]43C)[C@@H]12 [Compound 19] | mock-infected MT-2 cell | µM | 35.8 |
| C=C(C)[C@@H]1CC[C@]2(C(=O)N[C@@H](CC(C)C)C(=O)O)CC[C@]3(C)[C@H](CC[C@@H]4[C@@]5(C)CC[C@H](O)C(C)(C)[C@@H]5CC[C@]43C)[C@@H]12 [Compound 22] | mock-infected MT-2 cell | µM | 29.8 |
| C=C(C)[C@@H]1CC[C@]2(C(=O)NCCCCCCCC(=O)O)CC[C@]3(C)[C@H](CC[C@@H]4[C@@]5(C)CC[C@H](O)C(C)(C)[C@@H]5CC[C@]43C)[C@@H]12 [Compound 23] | mock-infected MT-2 cell | µM | 33.4 |
